Could you please report measured IC50 for the items listed next?
# system_tested: full-length beta-Catenin (Uniprot ID P35222) (Homo sapiens (Human)) (UniProt P35222)
# Sequence (P35222 whole entry): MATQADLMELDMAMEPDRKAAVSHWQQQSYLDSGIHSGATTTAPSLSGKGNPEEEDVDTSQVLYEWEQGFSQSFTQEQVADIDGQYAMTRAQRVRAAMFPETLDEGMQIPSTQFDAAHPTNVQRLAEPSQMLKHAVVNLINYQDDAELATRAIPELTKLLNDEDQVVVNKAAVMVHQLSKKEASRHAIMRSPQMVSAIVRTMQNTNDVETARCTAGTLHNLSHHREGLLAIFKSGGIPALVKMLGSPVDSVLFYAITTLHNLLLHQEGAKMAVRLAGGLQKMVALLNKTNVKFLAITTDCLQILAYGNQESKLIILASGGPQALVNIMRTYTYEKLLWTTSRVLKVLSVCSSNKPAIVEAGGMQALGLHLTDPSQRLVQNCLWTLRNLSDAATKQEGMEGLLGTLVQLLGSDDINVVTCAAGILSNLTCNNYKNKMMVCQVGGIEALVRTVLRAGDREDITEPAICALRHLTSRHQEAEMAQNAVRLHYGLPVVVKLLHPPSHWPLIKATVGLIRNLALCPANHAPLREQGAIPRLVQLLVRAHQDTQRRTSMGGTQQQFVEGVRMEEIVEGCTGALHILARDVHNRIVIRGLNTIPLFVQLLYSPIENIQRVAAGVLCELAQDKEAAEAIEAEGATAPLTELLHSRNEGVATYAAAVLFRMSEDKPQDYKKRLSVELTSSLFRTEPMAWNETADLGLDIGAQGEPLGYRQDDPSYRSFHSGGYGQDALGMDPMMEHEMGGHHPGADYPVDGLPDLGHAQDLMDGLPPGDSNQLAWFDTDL
# assay: fluorescence polarization competition; displacement of 5FAM-TCF4(10-53) from full-length beta-catenin
Starred links: 1 amine or outer side, 2 acyl side, 3 side chain; linkers in the order of their positions; H or OH if unused. Positions of bridges follow the written chain, without caps; N, C: chain ends. Non-standard residues stand in square brackets, D forms with d. Groups on a side chain read outwards from the residue. Primed or numbered codes have the meaning given here. *: point of attachment. PyrS2″ = (S)-3-amino-1-((pent-4-en-1-yloxy)carbonyl)pyrrolidine-3-carboxylic acid (stapling residue), C=CCCCOC(=O)N1CC[C@@](N[*:1])(C(=O)[*:2])C1; B5(4) = 2,2-bis(4-pentenyl)glycine = 2-amino-2-(pent-4-en-1-yl)hept-6-enoic acid (stitching residue), C=CCCCC(CCCC=C)(N[*:1])C(=O)[*:2]; B5(5) = 2,2-bis(4-pentenyl)glycine, 2-amino-2-(pent-4-en-1-yl)hept-6-enoic acid (stitching residue), C=CCCCC(CCCC=C)(N[*:1])C(=O)[*:2]; PyrS2 = (S)-3-amino-1-((pent-4-en-1-yloxy)carbonyl)pyrrolidine-3-carboxylic acid, C=CCCCOC(=O)N1CC[C@@](N[*:1])(C(=O)[*:2])C1; B5(27) = 2-amino-2-(pent-4-en-1-yl)hept-6-enoic acid (two alkene side-chain arms), C=CCCCC(CCCC=C)(N[*:1])C(=O)[*:2]; B5(3) = 2,2-bis(4-pentenyl)glycine (stitching residue), C=CCCCC(CCCC=C)(N[*:1])C(=O)[*:2]; Me3AdamantC = 3,5,7-trimethyladamantane-1-carbonyl, CC12CC3(C)CC(C)(C1)CC(C(=O)*)(C2)C3; Phe(2-OMe) = COc1ccccc1C[C@H](N)C(=O)O; Bta = N[C@@H](Cc1csc2ccccc12)C(=O)O; αAllylPro = C=CC[C@@]1(C(=O)O)CCCN1; tBuAla = CC(C)(C)C[C@H](N)C(=O)O; 3Thi = N[C@@H](Cc1ccsc1)C(=O)O; Cha = N[C@@H](CC1CCCCC1)C(=O)O; hSer = N[C@@H](CCO)C(=O)O; PEG2′ = not defined here
Note: unit nM is implicit; provide only the numeric part.

Q: Tell me its IC50 given Ac-[αAllylPro]D[tBuAla][B5(4)]DDAK([PEG2′-Me3AdamantC])FL[PyrS2″][3Thi][Bta]Q-NH2 (staple 1-4, 4-11) [I-1476] as the entry.
Ans: 16

Q: State its IC50: Ac-[αAllylPro]DY[B5(27)]DDAAFL[PyrS2][3Thi][Bta]Q-NH2 (staple 1-4, 4-11) [I-1511: Ac-PL3-Asp-Tyr-B5-Asp-Asp-Ala-Ala-Phe-Leu-PyrS2-3Thi-BztA-Gln-NH2]
Ans: 5

Q: Given Ac-[αAllylPro]D[tBuAla][B5(5)]DDAAFQ[PyrS2][3Thi][Bta]H-NH2 (staple 1-4, 4-11) [I-1459] , respond with its IC50.
Ans: 5

Q: Give the measured IC50 for Ac-[αAllylPro]DS[B5(4)]DDAAFL[PyrS2″][3Thi][Bta][hSer]-NH2 (staple 1-4, 4-11) [I-1514: Ac-PL3-Asp-Ser-B5-Asp-Asp-Ala-Ala-Phe-Leu-PyrS2-3Thi-BztA-Hse-NH2]
Ans: 27

Q: Retrieve IC50 measured for Ac-[αAllylPro]D[Cha][B5(3)]DDAAFS[PyrS2″][Phe(2-OMe)][Bta]S-NH2 (staple 1-4, 4-11) [I-1104] and print it.
Ans: 10
